Provenance of the data: ChEMBL document CHEMBL1201862

Recorded GI50 by entry
System: RXF 393
Assay: NCI tumour cell line growth inhibition, 48 h
Calls of active or inactive are those of the source. No stated cut-off is given here; in the data, active = GI50 up to about 1.1 µM and inactive = higher.

Some compounds with known GI50 results, for comparison:
COMPOUND | GI50
NC(CCC(=O)NC(CSC(=O)N(O)c1ccccc1)C(=O)NCC(=O)O)C(=O)O (stereo not drawn) | > 1000 µM (inactive)
CC(=O)O[C@H]1CC[C@H]2[C@@H]3CCC4=CC(=O)C=C[C@]4(O)[C@H]3CC[C@]12C | 20.6 µM (inactive)

Provide only the value of recorded GI50 for "O=C(c1cc2ccccc2cc1O)N1CCCCC1"
51.1 µM (inactive)

Look up and state reported GI50 for CC(=O)Nc1ccc(C(=O)NN2C(=O)C(Cl)C2c2ccc([N+](=O)[O-])cc2)cc1 (stereo not drawn)
> 100 µM (inactive)

----------
System: HL-60
Assay: NCI tumour cell line growth inhibition, 48 h
The source made the active and inactive calls. Rule as the data show it: active = GI50 up to about 1.1 µM and inactive = higher.
OUTCOME_MEASURE: GI50

MOLECULE | GI50
CCOc1cc(-c2nc3ccccn3c2/N=C/c2cc(Br)ccc2O)ccc1O | 15 µM (inactive)

Could you now look at the following molecule, please?
Under HL-60, report GI50 for CCCOC(=O)C1CCC(=O)N1C(=O)C(C)Cl (stereo unspecified)
> 100 µM (inactive)

----------
Tested on: SW-620
Experiment: NCI tumour cell line growth inhibition, 48 h
Calls of active or inactive are those of the source. No stated cut-off is given here; in the data, active = GI50 up to about 1.1 µM and inactive = higher.
OUTCOME_MEASURE: GI50

MOLECULE | OUTCOME_MEASURE | REPORTED_RESULT
NC(CCSC(F)F)C(=O)O (centres undefined) | GI50 | > 100 µM (inactive)
O=C(c1cc(Cl)ccc1Cl)N1CCN(c2cccc(Cl)c2)CC1 | GI50 | 24.2 µM (inactive)
O=C(SC1=NCCN1)c1cccc2ccccc12 | GI50 | 33.8 µM (inactive)
CC(C)(C)C#COC(=O)c1ccccc1 | GI50 | > 100 µM (inactive)
CC12OC(=O)C(C#N)C1(C)C1C(=O)CCCC12 (centres undefined) | GI50 | > 100 µM (inactive)
Cc1c(/C=N/NC(=O)c2cc(Br)cc(Br)c2O)c(=O)n(-c2ccccc2)n1C | GI50 | 53.7 µM (inactive)

Specify GI50 for O=C1O[B-](c2ccccc2)(c2ccccc2)[NH2+]C1CS (centres undefined) , system SW-620.
24.5 µM (inactive)

Provide GI50, system SW-620, entry "COc1ccc(OC)c(NC(=O)C2=C(C)NC(C)=C(C(=O)Nc3cc(OC)ccc3OC)C2c2ccco2)c1"
> 100 µM (inactive)

Would you please give the reported GI50 of "CN1CCN(C)C12C=CC=CC21CC1" with SW-620?
> 100 µM (inactive)

Give GI50; test system SW-620; molecule C[C@]12CC[C@H](O)CC1=CC[C@@H]1C2CC[C@]2(C)C(=O)N(N)C(=O)CC12 (some centres undefined)
> 100 µM (inactive)

Under SW-620, report GI50 for Cc1ccc(/C=C2/N/C(=N\N=C/C(O)C(O)C(O)CO)NC2=O)cc1 (centres undefined)
> 100 µM (inactive)

State the measured GI50 (SW-620) of "Cn1c2c(c3c(=O)[nH]ncc31)CCc1ccccc1-2"
34.1 µM (inactive)

Provide SW-620 GI50 reading for "Cc1ccc(O)c(/N=N/c2ccc(S(=O)(=O)O)cc2)n1" .
> 100 µM (inactive)

# lookup: SW-620 GI50, key = "N/C(=C\c1ccc(OCc2ccccc2)c(OCc2ccccc2)c1[N+](=O)[O-])C(=O)O"
> 100 µM (inactive)

Name the recorded GI50 of "O=C(O)CCSC(=O)Nc1ccc(/N=N/c2ccccc2)cc1" , assay system SW-620.
> 100 µM (inactive)

Using SW-620 as the test system, report measured GI50 of "O=C(Nc1ccc(F)cc1)c1cc2ccc(O)cc2o/c1=N\c1cccc(F)c1" .
41.5 µM (inactive)

For SW-620, give the measured GI50 of the entry "CCOc1ccc(/C=C/C(=O)c2sc(NNC(C)=O)nc2C)cc1"
> 100 µM (inactive)

Lab note: record GI50 of O=C(CC1C(=O)Nc2ccccc2S1(=O)=O)Nc1cccc(Cl)c1 (centres undefined) tested on SW-620.
17.7 µM (inactive)

Identify measured GI50 obtained with SW-620 for Cc1cn(CCCCOC(=O)NC(CCCNC(N)=O)C(=O)O)c(=O)[nH]c1=O (centres undefined) .
> 100 µM (inactive)

Please report GI50 with SW-620 for item COc1ccc2cc3[n+](cc2c1O)CCc1cc2c(cc1-3)OCO2 [BERBERRUBINE CHLORIDE] .
92.9 µM (inactive)
